test system: Micrococcus luteus; test: Antibacterial activity against Micrococcus luteus ATCC 4698 after 24 hrs by twofold broth dilution method; assay type: functional; conditions: ATCC 4698, 24 h
Provide the reported MIC of each item.
Note: unit µg/mL is implicit; provide only the numeric part.

Asked: Provide only the value of recorded MIC for O=[N+]([O-])c1cn(CCN(CCBr)Cc2cccc(Cl)c2)cn1
Given back: 64

Asked: Provide only the value of recorded MIC for COc1ccc2cc3[n+](cc2c1OCCN(CCn1cncc1[N+](=O)[O-])Cc1cccc(Cl)c1)CCc1cc2c(cc1-3)OCO2.[Cl-]
Given back: 32

Asked: Provide only the value of recorded MIC for O=[N+]([O-])c1cn(CCN(CCBr)Cc2ccc(Cl)cc2)cn1
Given back: 128

Asked: Provide only the value of recorded MIC for Cc1ncc([N+](=O)[O-])n1CCN(CCBr)Cc1ccc(F)cc1F
Given back: 128

Asked: Provide only the value of recorded MIC for COc1ccc2cc3[n+](cc2c1OCCN(CCn1cncc1[N+](=O)[O-])Cc1ccc(Cl)cc1)CCc1cc2c(cc1-3)OCO2.[Cl-]
Given back: 64
